Test system: patient sample microbes
Experiment: AST MIC results for antimicrobial panel 2 (384-well panel from Master Plate vs 96-well panel)
Assay type: cell-based
Conditions: antimicrobial panel 2, 384 well patient cartridge
Label met when MICs obtained from panel made from Master Plate is strictly below 1 µg/mL; otherwise label not met.

{"columns": ["Molecule", "Class Name"],
 "data": [
  ["Cc1onc(-c2ccccc2)c1C(=O)N[C@@H]1C(=O)N2[C@@H]1SC(C)(C)[C@@H]2C(=O)O [Oxacillin]", "met"],
  ["CC(=O)NC[C@H]1CN(c2ccc(N3CCOCC3)c(F)c2)C(=O)O1 [Linezolid]", "not met"],
  ["CO/N=C(\\C(=O)N[C@@H]1C(=O)N2C(C(=O)O)=C(CSc3nc(=O)c(=O)[nH]n3C)CS[C@H]12)c1csc(N)n1 [Ceftriaxone]", "not met"],
  ["Cn1nnc(-c2ccc(-c3ccc(N4C[C@H](CO)OC4=O)cc3F)cn2)n1 [Tedizolid]", "met"],
  ["CO[C@H]1/C=C/O[C@@]2(C)Oc3c(C)c(O)c4c(O)c(c(/C=N/N5CCN(C)CC5)c(O)c4c3C2=O)NC(=O)/C(C)=C\\C=C\\[C@H](C)[C@H](O)[C@@H](C)[C@@H](O)[C@@H](C)[C@H](OC(C)=O)[C@@H]1C [Rifampin]", "met"],
  ["C[C@H]1COc2c(N3CCN(C)CC3)c(F)cc3c(=O)c(C(=O)O)cn1c23 [Levofloxacin]", "met"],
  ["CC(C)(O/N=C(\\C(=O)N[C@@H]1C(=O)N2C(C(=O)[O-])=C(C[n+]3ccccc3)CS[C@H]12)c1csc(N)n1)C(=O)O [Ceftazidime]", "not met"],
  ["CCO/N=C(\\C(=O)N[C@@H]1C(=O)N2C(C(=O)[O-])=C(Sc3nc(-c4cc[n+](C)cc4)cs3)CS[C@H]12)c1nsc(N)n1 [Ceftaroline]", "met"]
]}

---

Below is a list of entries, each paired with its recorded MICs obtained from panel made from Master Plate value.
Test system: patient sample microbes
Experiment: AST MIC results for antimicrobial panel 1 (384-well panel from Master Plate vs 96-well panel)
Assay type: cell-based
Details: antimicrobial panel 1, 384 well patient cartridge
Endpoint: MICs obtained from panel made from Master Plate

{"columns": ["Chemical Structure", "Result"],
 "data": [
  ["NC[C@H]1O[C@H](O[C@H]2[C@H](O)[C@@H](O[C@H]3O[C@H](CO)[C@@H](O)[C@H](N)[C@H]3O)[C@H](N)C[C@@H]2N)[C@H](N)C[C@@H]1O", "0.5 µg/mL"],
  ["CO/N=C(\\C(=O)N[C@@H]1C(=O)N2C(C(=O)O)=C(CSc3nc(=O)c(=O)[nH]n3C)CS[C@H]12)c1csc(N)n1", "≤ 0.125 µg/mL"],
  ["CC1(C)S[C@@H]2[C@H](NC(=O)[C@H](N)c3ccccc3)C(=O)N2[C@H]1C(=O)O", "4 µg/mL"],
  ["C[C@H]1COc2c(N3CCN(C)CC3)c(F)cc3c(=O)c(C(=O)O)cn1c23", "≤ 0.25 µg/mL"]
]}
